Test system: MCF7
Test: Cytotoxicity against human MCF7 cells assessed as growth inhibition after 72 hrs by SRB assay
Type: functional
Settings: Homo sapiens, MCF7, 72 h; read-out: ED50 (the source's name)
Doc: threshold 0.1 µg/mL (exclusive). Items with EC50 beneath it return satisfied; others return not satisfied.

Field: example entries. Status: answers known.
MOLECULE | ASSIGNED LABEL
C[C@@H]1O[C@@H](O[C@H]2CC[C@]3(C=O)[C@H]4CC[C@]5(C)[C@@H](C6=CC(=O)OC6)CC[C@]5(O)[C@@H]4CC[C@]3(O)C2)[C@H](O)[C@H](O)[C@H]1O[C@@H]1O[C@H](CO)[C@@H](O)[C@H](O)[C@H]1O [CONVALLOSIDE] | not satisfied
C[C@H]1O[C@H](O[C@H]2CC[C@]3(C=O)[C@H]4CC[C@]5(C)[C@@H](C6=CC(=O)OC6)CC[C@]5(O)[C@@H]4CC[C@]3(O)C2)[C@H](O)[C@H](O[C@@H]2O[C@H](CO)[C@@H](O)[C@H](O)[C@H]2O)[C@@H]1O [GLUCOSTROPHALLOSIDE] | satisfied
C[C@]12[C@H](O)C[C@H]3[C@@H](CC[C@]4(O)CCCC[C@]34C=O)[C@@]1(O)CC[C@@H]2C1=CC(=O)OC1 [ANTIARIGENIN] | not satisfied
C[C@@H]1O[C@H](O[C@H]2CC[C@@]3(C(=O)O[C@@H]4O[C@H](CO)[C@@H](O)[C@H](O)[C@H]4O)[C@H](CC[C@@H]4[C@@H]3CC[C@]3(C)[C@@H](C5=CC(=O)OC5)CC[C@]43O)C2)[C@H](O)[C@H](O)[C@H]1O [ANTIAROSIDE F] | not satisfied
COc1c(CC(O)C(C)(C)O)cc2ccc(=O)oc2c1O (centres undefined) | not satisfied

Now, please, on to the next molecule.
Problem: Hi there! Is EC50 for C[C@@H]1O[C@H](O[C@H]2CC[C@@]3(C(=O)O)[C@H](CC[C@@H]4[C@@H]3CC[C@]3(C)[C@@H](C5=CC(=O)OC5)CC[C@]43O)C2)[C@H](O)[C@H](O)[C@H]1O [ANTIAROSIDE E] below 0.1 µg/mL, do you know?
Solution: not satisfied
